- test.protocol: Multiple-ascending-dose phase 1 study: plasma and urine pharmacokinetics
- Format: in vivo, humans
- condition.summary: human, plasma, iv, 100 mg, 100 mg IV once weekly x2, day 8, arithmetic mean; read-out: Vz
Numbered stars: 1 amine (or outer) side, 2 acyl side, 3 side chain; on linkers, the order of the positions; unused ones are H or OH. Bridge positions count the residues as written; N and C are the ends. Square brackets hold non-standard residues; d marks the D form. Peptide text beside a SMILES is read from it. * marks the point of attachment. Orn(4R-OH,5R-OCH2CH2NMe3+) = C[N+](C)(C)CCO[C@@H](N[*:3])[C@H](O)C[C@H](N[*:1])C(=O)[*:2]; pTerphenylCO(4''-OnC5H11) = CCCCCOc1ccc(-c2ccc(-c3ccc(C(=O)*)cc3)cc2)cc1; hTyr(3S-OH,4S-OH) = N[C@H](C(=O)O)[C@H](O)[C@@H](O)c1ccc(O)cc1; Pro(3S-OH,4S-Me) = C[C@H]1CN[C@H](C(=O)O)[C@H]1O; Hyp = O=C(O)[C@@H]1C[C@@H](O)CN1

{"compound": "CCCCCOc1ccc(-c2ccc(-c3ccc(C(=O)N[C@H]4C[C@@H](O)[C@@H](OCC[N+](C)(C)C)NC(=O)[C@@H]5[C@@H](O)[C@@H](C)CN5C(=O)[C@H]([C@@H](C)O)NC(=O)[C@H]([C@H](O)[C@@H](O)c5ccc(O)cc5)NC(=O)[C@@H]5C[C@@H](O)CN5C(=O)[C@H]([C@@H](C)O)NC4=O)cc3)cc2)cc1 [CD101] ({pTerphenylCO(4''-OnC5H11)}-[Orn(4R-OH,5R-OCH2CH2NMe3+)]T[Hyp][hTyr(3S-OH,4S-OH)]T[Pro(3S-OH,4S-Me)]; lactam 1-C)", "measurement.unit": "L", "Vd": 33.8}

###

- test.protocol: Single-ascending-dose phase 1 study: plasma and urine pharmacokinetics
- Assay type: in vivo, humans
- condition.summary: human; single 50 mg IV infusion over 1 h, plasma, arithmetic mean
Numbered stars: 1 amine (or outer) side, 2 acyl side, 3 side chain; on linkers, the order of the positions; unused ones are H or OH. Bridge positions count the residues as written; N and C are the ends. Square brackets hold non-standard residues; d marks the D form. Peptide text beside a SMILES is read from it. * marks the point of attachment. Orn(4R-OH,5R-OCH2CH2NMe3+) = C[N+](C)(C)CCO[C@@H](N[*:3])[C@H](O)C[C@H](N[*:1])C(=O)[*:2]; pTerphenylCO(4''-OnC5H11) = CCCCCOc1ccc(-c2ccc(-c3ccc(C(=O)*)cc3)cc2)cc1; hTyr(3S-OH,4S-OH) = N[C@H](C(=O)O)[C@H](O)[C@@H](O)c1ccc(O)cc1; Pro(3S-OH,4S-Me) = C[C@H]1CN[C@H](C(=O)O)[C@H]1O; Hyp = O=C(O)[C@@H]1C[C@@H](O)CN1

{"compound": "CCCCCOc1ccc(-c2ccc(-c3ccc(C(=O)N[C@H]4C[C@@H](O)[C@@H](OCC[N+](C)(C)C)NC(=O)[C@@H]5[C@@H](O)[C@@H](C)CN5C(=O)[C@H]([C@@H](C)O)NC(=O)[C@H]([C@H](O)[C@@H](O)c5ccc(O)cc5)NC(=O)[C@@H]5C[C@@H](O)CN5C(=O)[C@H]([C@@H](C)O)NC4=O)cc3)cc2)cc1 [CD101] ({pTerphenylCO(4''-OnC5H11)}-[Orn(4R-OH,5R-OCH2CH2NMe3+)]T[Hyp][hTyr(3S-OH,4S-OH)]T[Pro(3S-OH,4S-Me)]; lactam 1-C)", "half-life [days]": 5.54}

###

- test.protocol: Single-ascending-dose phase 1 study: plasma and urine pharmacokinetics
- Type: in vivo, humans
- condition.summary: human; single 50 mg IV infusion over 1 h, plasma, arithmetic mean
Numbered stars: 1 amine (or outer) side, 2 acyl side, 3 side chain; on linkers, the order of the positions; unused ones are H or OH. Bridge positions count the residues as written; N and C are the ends. Square brackets hold non-standard residues; d marks the D form. Peptide text beside a SMILES is read from it. * marks the point of attachment. Orn(4R-OH,5R-OCH2CH2NMe3+) = C[N+](C)(C)CCO[C@@H](N[*:3])[C@H](O)C[C@H](N[*:1])C(=O)[*:2]; pTerphenylCO(4''-OnC5H11) = CCCCCOc1ccc(-c2ccc(-c3ccc(C(=O)*)cc3)cc2)cc1; hTyr(3S-OH,4S-OH) = N[C@H](C(=O)O)[C@H](O)[C@@H](O)c1ccc(O)cc1; Pro(3S-OH,4S-Me) = C[C@H]1CN[C@H](C(=O)O)[C@H]1O; Hyp = O=C(O)[C@@H]1C[C@@H](O)CN1
property.label: clearance

{"compound": "CCCCCOc1ccc(-c2ccc(-c3ccc(C(=O)N[C@H]4C[C@@H](O)[C@@H](OCC[N+](C)(C)C)NC(=O)[C@@H]5[C@@H](O)[C@@H](C)CN5C(=O)[C@H]([C@@H](C)O)NC(=O)[C@H]([C@H](O)[C@@H](O)c5ccc(O)cc5)NC(=O)[C@@H]5C[C@@H](O)CN5C(=O)[C@H]([C@@H](C)O)NC4=O)cc3)cc2)cc1 [CD101] ({pTerphenylCO(4''-OnC5H11)}-[Orn(4R-OH,5R-OCH2CH2NMe3+)]T[Hyp][hTyr(3S-OH,4S-OH)]T[Pro(3S-OH,4S-Me)]; lactam 1-C)", "observed.measurement": "3.75 mL/min"}

###

- test.protocol: Multiple-ascending-dose phase 1 study: plasma and urine pharmacokinetics
- Type: in vivo, humans
- condition.summary: human, plasma, iv, 400 mg, following the third (last) dose; read-out: trough concentration on day 7 (144 h postdose)
Numbered stars: 1 amine (or outer) side, 2 acyl side, 3 side chain; on linkers, the order of the positions; unused ones are H or OH. Bridge positions count the residues as written; N and C are the ends. Square brackets hold non-standard residues; d marks the D form. Peptide text beside a SMILES is read from it. * marks the point of attachment. Orn(4R-OH,5R-OCH2CH2NMe3+) = C[N+](C)(C)CCO[C@@H](N[*:3])[C@H](O)C[C@H](N[*:1])C(=O)[*:2]; pTerphenylCO(4''-OnC5H11) = CCCCCOc1ccc(-c2ccc(-c3ccc(C(=O)*)cc3)cc2)cc1; hTyr(3S-OH,4S-OH) = N[C@H](C(=O)O)[C@H](O)[C@@H](O)c1ccc(O)cc1; Pro(3S-OH,4S-Me) = C[C@H]1CN[C@H](C(=O)O)[C@H]1O; Hyp = O=C(O)[C@@H]1C[C@@H](O)CN1
property.label: level at 144 h

{"molecule": "CCCCCOc1ccc(-c2ccc(-c3ccc(C(=O)N[C@H]4C[C@@H](O)[C@@H](OCC[N+](C)(C)C)NC(=O)[C@@H]5[C@@H](O)[C@@H](C)CN5C(=O)[C@H]([C@@H](C)O)NC(=O)[C@H]([C@H](O)[C@@H](O)c5ccc(O)cc5)NC(=O)[C@@H]5C[C@@H](O)CN5C(=O)[C@H]([C@@H](C)O)NC4=O)cc3)cc2)cc1 [CD101] ({pTerphenylCO(4''-OnC5H11)}-[Orn(4R-OH,5R-OCH2CH2NMe3+)]T[Hyp][hTyr(3S-OH,4S-OH)]T[Pro(3S-OH,4S-Me)]; lactam 1-C)", "observed.measurement": "~7000 ng/mL"}

###

- test.protocol: Single-ascending-dose phase 1 study: plasma and urine pharmacokinetics
- Assay type: in vivo, humans
- condition.summary: human; single 200 mg IV infusion over 1 h, plasma, arithmetic mean
Numbered stars: 1 amine (or outer) side, 2 acyl side, 3 side chain; on linkers, the order of the positions; unused ones are H or OH. Bridge positions count the residues as written; N and C are the ends. Square brackets hold non-standard residues; d marks the D form. Peptide text beside a SMILES is read from it. * marks the point of attachment. Orn(4R-OH,5R-OCH2CH2NMe3+) = C[N+](C)(C)CCO[C@@H](N[*:3])[C@H](O)C[C@H](N[*:1])C(=O)[*:2]; pTerphenylCO(4''-OnC5H11) = CCCCCOc1ccc(-c2ccc(-c3ccc(C(=O)*)cc3)cc2)cc1; hTyr(3S-OH,4S-OH) = N[C@H](C(=O)O)[C@H](O)[C@@H](O)c1ccc(O)cc1; Pro(3S-OH,4S-Me) = C[C@H]1CN[C@H](C(=O)O)[C@H]1O; Hyp = O=C(O)[C@@H]1C[C@@H](O)CN1

{"molecule": "CCCCCOc1ccc(-c2ccc(-c3ccc(C(=O)N[C@H]4C[C@@H](O)[C@@H](OCC[N+](C)(C)C)NC(=O)[C@@H]5[C@@H](O)[C@@H](C)CN5C(=O)[C@H]([C@@H](C)O)NC(=O)[C@H]([C@H](O)[C@@H](O)c5ccc(O)cc5)NC(=O)[C@@H]5C[C@@H](O)CN5C(=O)[C@H]([C@@H](C)O)NC4=O)cc3)cc2)cc1 [CD101] ({pTerphenylCO(4''-OnC5H11)}-[Orn(4R-OH,5R-OCH2CH2NMe3+)]T[Hyp][hTyr(3S-OH,4S-OH)]T[Pro(3S-OH,4S-Me)]; lactam 1-C)", "clearance, mL/min": 3.65}

# credit: paper PMC5278714
